# measured-on: full length N-terminally FLAG-tagged PARP1 (Homo sapiens)
# Sequence (P09874 whole entry): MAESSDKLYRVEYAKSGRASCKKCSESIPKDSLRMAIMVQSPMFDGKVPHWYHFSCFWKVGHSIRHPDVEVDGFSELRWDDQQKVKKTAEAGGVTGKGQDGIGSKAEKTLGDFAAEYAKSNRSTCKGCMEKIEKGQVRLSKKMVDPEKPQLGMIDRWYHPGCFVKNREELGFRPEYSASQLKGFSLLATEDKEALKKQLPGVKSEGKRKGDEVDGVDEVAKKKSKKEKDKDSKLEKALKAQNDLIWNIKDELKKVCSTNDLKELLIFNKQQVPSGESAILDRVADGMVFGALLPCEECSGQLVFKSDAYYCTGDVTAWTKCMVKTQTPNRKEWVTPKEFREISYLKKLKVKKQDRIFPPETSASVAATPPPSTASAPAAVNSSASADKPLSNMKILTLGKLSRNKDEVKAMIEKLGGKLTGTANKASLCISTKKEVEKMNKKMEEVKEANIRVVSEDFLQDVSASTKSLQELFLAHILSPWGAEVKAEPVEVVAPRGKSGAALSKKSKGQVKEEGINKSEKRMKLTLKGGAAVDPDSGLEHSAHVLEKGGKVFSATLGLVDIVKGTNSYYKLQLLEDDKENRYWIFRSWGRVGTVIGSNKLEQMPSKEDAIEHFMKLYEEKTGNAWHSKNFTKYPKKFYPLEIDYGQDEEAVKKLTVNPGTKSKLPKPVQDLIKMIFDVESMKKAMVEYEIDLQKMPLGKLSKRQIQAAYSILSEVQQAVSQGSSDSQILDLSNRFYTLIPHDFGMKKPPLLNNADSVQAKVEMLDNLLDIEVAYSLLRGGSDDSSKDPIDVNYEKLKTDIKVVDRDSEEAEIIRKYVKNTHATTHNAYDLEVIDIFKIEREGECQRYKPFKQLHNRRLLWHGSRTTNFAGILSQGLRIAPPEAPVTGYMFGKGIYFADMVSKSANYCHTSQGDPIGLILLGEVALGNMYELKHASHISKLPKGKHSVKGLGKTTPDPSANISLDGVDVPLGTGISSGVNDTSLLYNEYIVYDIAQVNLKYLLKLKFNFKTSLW
# assay-details: PARP1 probe displacement HTRF assay
# experimental-conditions: read-out: PARP1 HTRF; binned Kd, PARP1 probe displacement HTRF
reported-endpoint: Kd

The compound identified as CNC(=O)c1ccc(N2CCC(N3CCC(c4nc5ccncc5c(=O)[nH]4)C3)CC2)cn1 (single isomer, unassigned) [Compound 81a] registered its Kd at 100 to 1000 nM

The compound identified as CNC(=O)c1ccc(N2CCC(N3CCC(c4cc5ccc(Cl)cc5c(=O)[nH]4)C3)CC2)cn1 (single isomer, unassigned) [Compound 129a] registered its Kd at < 10 nM

The compound identified as CNC(=O)c1ccc(N2CCC(N3CCCC(c4nc5cccc(F)c5c(=O)[nH]4)C3)CC2)cn1 (single isomer, unassigned) [Compound 88b] registered its Kd at < 10 nM

The compound identified as CNC(=O)c1ccc(N2CCC(N3CCC(c4cc5ccc(F)cc5c(=O)[nH]4)C3)CC2)c(C)n1 (single isomer, unassigned) [Compound 196b] registered its Kd at < 10 nM

The compound identified as CNC(=O)c1ccc(N2CCC(N3CCCC(C)(c4nc5ccccc5c(=O)[nH]4)C3)CC2)cn1 (single isomer, unassigned) [Compound 66b] registered its Kd at 1000 to 10000 nM
